These records show IC50 for CRBN (Homo sapiens).
quantity.measured: IC50 (nM)

Illustrative cases are given below, each with its answer.
# molecule, IC50 / nM
rows = [
    ("CC(=O)c1c(C)c2cnc(Nc3ccc(N4CCN(CCN5CCC(CN6CCN(c7ccc8c(c7)CN(C7CCC(=O)NC7=O)C8=O)CC6)CC5)CC4)cn3)nc2n(C2CCCC2)c1=O (single isomer, unassigned) [Compound 3]", 1200),
    ("CC(=O)c1c(C)c2cnc(Nc3ccc(N4CCN(CCN5CCN(c6ccc7c(c6)CN(C6CCC(=O)NC6=O)C7=O)CC5)CC4)cn3)nc2n(C2CCCC2)c1=O (single isomer, unassigned) [Compound 1]", 3000),
]

I. CC(=O)c1c(C)c2cnc(Nc3ccc(N4CCN(CCN5CCC(C(=O)N6CCN(c7ccc8c(c7)CN([C@H]7CCC(=O)NC7=O)C8=O)CC6)CC5)CC4)cn3)nc2n(C2CCCC2)c1=O [Compound 8]
II. CC(=O)c1c(C)c2cnc(Nc3ccc(N4CCN(CCN5CCN(c6ccc7c(c6)CN(C6CCC(=O)NC6=O)C7=O)CC5)CC4)cn3)nc2n(C2CCCC2)c1=O.Cl.Cl (single isomer, unassigned) [Compound 2, dihydrochloride]
III. CC(=O)c1c(C)c2cnc(Nc3ccc(N4CCN(CCN5CCC(CN6CCN(c7ccc8c(c7)CN(C7CCC(=O)NC7=O)C8=O)CC6)CC5)CC4)cn3)nc2n(C2CCCC2)c1=O.Cl.Cl.Cl (single isomer, unassigned) [Compound 4, trihydrochloride]
Task item: List these items ordered by IC50, big to small. Thanks in advance for listing the labels in the requested order.
Reply: II, III, I
(II: 3000 nM, III: 2080 nM, I: 1210 nM)

---

- target.under.test: CDK2 (Homo sapiens, UniProt P24941)
- assay.summary: In-vitro kinase inhibitory activity, CDK2 (selectivity)
- Assay type: biochemical
- run.parameters: read-out: IC50 (half maximal inhibitory concentration, nM) CDK2
Structures can show the parent of a compound that is named as a salt.
quantity.measured: IC50 (nM)

Illustrative cases are given below, each with its answer.
# molecule, IC50, nM
measured = [
    ("Cc1nc2c(F)cc(-c3nc(Nc4ccc(CN5CCN(CCN6CCN(c7ccc8c(c7)CN(C7CCC(=O)NC7=O)C8=O)CC6)CC5)cn4)ncc3F)cc2n1C(C)C (centres unmarked) [Compound 12, trihydrochloride]", 1030),
    ("CC(=O)c1c(C)c2cnc(Nc3ccc(N4CCN(CC(=O)N5CCC(C(=O)N6CCN(c7ccc8c(c7)CN([C@H]7CCC(=O)NC7=O)C8=O)CC6)CC5)CC4)cn3)nc2n(C2CCCC2)c1=O", 7480),
    ("CC(=O)c1c(C)c2cnc(Nc3ccc(N4CCN(CCN5CCC(CC6CCN(c7ccc8c(c7)CN(C7CCC(=O)NC7=O)C8=O)CC6)CC5)CC4)cn3)nc2n(C2CCCC2)c1=O (centres unmarked) [Compound 11, dihydrochloride]", 8200),
    ("CC(=O)c1c(C)c2cnc(Nc3ccc(N4CCN(CCN5CCC(C(=O)N6CCN(c7ccc8c(c7)CN([C@H]7CCC(=O)NC7=O)C8=O)CC6)CC5)CC4)cn3)nc2n(C2CCCC2)c1=O", 9000),
    ("CC(=O)c1c(C)c2cnc(Nc3ccc(N4CCN(CCN5CCC(CN6CCN(c7ccc8c(c7)CN(C7CCC(=O)NC7=O)C8=O)CC6)CC5)CC4)cn3)nc2n(C2CCCC2)c1=O (single isomer, unassigned)", 9660),
]

A. Cc1nc2c(F)cc(-c3nc(Nc4ccc(CN5CCN(CC(=O)N6CCC(C(=O)N7CCN(c8ccc9c(c8)CN([C@H]8CCC(=O)NC8=O)C9=O)CC7)CC6)CC5)cn4)ncc3F)cc2n1C(C)C
B. CC(=O)c1c(C)c2cnc(Nc3ccc(N4CCN(CCCCN5CCC(CN6CCN(c7ccc8c(c7)CN(C7CCC(=O)NC7=O)C8=O)CC6)CC5)CC4)cn3)nc2n(C2CCCC2)c1=O (centres unmarked)
Task item: // compare: A vs B , metric IC50, want the smaller Respond using the label that marks the chosen record.
Reply: A
(A: 1140 nM, B: 9910 nM)

---

- target.under.test: CDK4/CyclinD3 (Homo sapiens, UniProt P11802)
- Construct: purchased Wuxi Biortus Biosciences Co. Ltd
- Sequence (P11802 whole entry, species assumed): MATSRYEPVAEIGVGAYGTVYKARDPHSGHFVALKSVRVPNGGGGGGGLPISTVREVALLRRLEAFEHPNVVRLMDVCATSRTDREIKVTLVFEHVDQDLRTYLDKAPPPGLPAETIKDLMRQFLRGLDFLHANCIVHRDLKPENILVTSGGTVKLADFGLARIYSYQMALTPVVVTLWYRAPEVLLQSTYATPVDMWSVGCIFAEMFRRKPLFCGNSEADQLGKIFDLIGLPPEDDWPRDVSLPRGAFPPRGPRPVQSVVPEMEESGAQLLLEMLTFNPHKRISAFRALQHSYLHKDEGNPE
- Sequence (P30281 whole entry partner, species assumed): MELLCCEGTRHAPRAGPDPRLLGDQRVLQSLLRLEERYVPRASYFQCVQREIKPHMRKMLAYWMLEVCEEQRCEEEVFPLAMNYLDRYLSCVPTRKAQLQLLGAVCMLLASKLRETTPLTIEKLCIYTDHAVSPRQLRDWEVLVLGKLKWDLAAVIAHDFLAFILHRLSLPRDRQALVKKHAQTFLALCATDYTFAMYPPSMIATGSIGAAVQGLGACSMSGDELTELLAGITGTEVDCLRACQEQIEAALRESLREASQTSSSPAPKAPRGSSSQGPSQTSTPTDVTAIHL
- assay.summary: In-vitro kinase inhibitory activity, CDK4/CyclinD3 (Caliper EZ Reader II mobility shift)
- Format: biochemical
- run.parameters: CDK4/CyclinD3 20 nM, ATP 2 mM, Peptide 1 μM, 27° C., 180 min; read-out: IC50 (half maximal inhibitory concentration, nM) CDK4
Where a name gives a salt, the structure may show the parent alone.
quantity.measured: IC50 (nM)

Illustrative cases are given below, each with its answer.
# compound, value
measured = [
    ("CC(=O)c1c(C)c2cnc(Nc3ccc(N4CCN(CCN5CCC(CC6CCN(c7ccc8c(c7)CN([C@H]7CCC(=O)NC7=O)C8=O)CC6)CC5)CC4)cn3)nc2n(C2CCCC2)c1=O [Compound 38, dihydrochloride]", 8.88),
    ("CC(=O)c1c(C)c2cnc(Nc3ccc(N4CCN(CCN5CCN(c6cc7c(cc6F)C(=O)N(C6CCC(=O)NC6=O)C7)CC5)CC4)cn3)nc2n(C2CCCC2)c1=O.Cl.Cl (centres unmarked) [Compound 27, dihydrochloride]", 45.4),
    ("CC(=O)c1c(C)c2cnc(Nc3ccc(N4CCN(CCN5CCC(CC6CCN(c7ccc8c(c7)CN(C7CCC(=O)NC7=O)C8=O)CC6)CC5)CC4)cn3)nc2n(C2CCCC2)c1=O (centres unmarked) [Compound 10]", 11.5),
]

A. CC(=O)c1c(C)c2cnc(Nc3ccc(N4CCN(CCCCN5CCC(CN6CCN(c7ccc8c(c7)CN(C7CCC(=O)NC7=O)C8=O)CC6)CC5)CC4)cn3)nc2n(C2CCCC2)c1=O (centres unmarked)
B. CC(=O)c1c(C)c2cnc(Nc3ccc(N4CCN(CCN5CCC(C(=O)N6CCN(c7ccc8c(c7)CN([C@H]7CCC(=O)NC7=O)C8=O)CC6)CC5)CC4)cn3)nc2n(C2CCCC2)c1=O
Task item: Could you please tell me which of these two has the higher IC50: A or B ? Respond using the label that marks the chosen record.
Reply: B
(B: 19.9 nM, A: 10 nM)

---

- target.under.test: CDK4/CyclinD3 (Homo sapiens, UniProt P11802)
- Construct: purchased Wuxi Biortus Biosciences Co. Ltd
- assay.summary: In-vitro kinase inhibitory activity, CDK4/CyclinD3 (Caliper EZ Reader II mobility shift)
- Format: biochemical
- run.parameters: CDK4/CyclinD3 20 nM, ATP 2 mM, Peptide 1 μM, 27° C., 180 min; read-out: IC50 (half maximal inhibitory concentration, nM) CDK4
Structures can show the parent of a compound that is named as a salt.
quantity.measured: IC50 (nM)

Illustrative cases are given below, each with its answer.
# molecule, IC50 / nM
data = [
    ("CC(=O)c1c(C)c2cnc(Nc3ccc(N4CCN(CCN5CCN(c6ccc7c(c6)CN(C6CCC(=O)NC6=O)C7=O)CC5)CC4)cn3)nc2n(C2CCCC2)c1=O (single isomer, unassigned)", 38.8),
    ("CC(=O)c1c(C)c2cnc(Nc3ccc(N4CCN(CCN5CCC(CN6CCN(c7ccc8c(c7)CN(C7CCC(=O)NC7=O)C8=O)CC6)CC5)CC4)cn3)nc2n(C2CCCC2)c1=O.Cl.Cl.Cl (single isomer, unassigned) [Compound 4, trihydrochloride]", 10.7),
    ("Cc1nc2c(F)cc(-c3nc(Nc4ccc(CN5CCN(CC(=O)N6CCC(C(=O)N7CCN(c8ccc9c(c8)CN([C@H]8CCC(=O)NC8=O)C9=O)CC7)CC6)CC5)cn4)ncc3F)cc2n1C(C)C", 24.2),
    ("CC(=O)c1c(C)c2cnc(Nc3ccc(N4CCN(CCN5CCN(c6ccc7c(c6Cl)CN(C6CCC(=O)NC6=O)C7=O)CC5)CC4)cn3)nc2n(C2CCCC2)c1=O (stereo not shown) [Compound 21, dihydrochloride]", 53.2),
    ("COc1cc(N2CCN(CCN3CCN(c4ccc(Nc5ncc6c(C)c(C(C)=O)c(=O)n(C7CCCC7)c6n5)nc4)CC3)CC2)cc2c1C(=O)N(C1CCC(=O)NC1=O)C2 (stereo not shown) [Compound 16]", 60.1),
]

a. CC(=O)c1c(C)c2cnc(Nc3ccc(N4CCN(CCN5CCC(CN6CCN(c7ccc8c(c7)CN(C7CCC(=O)NC7=O)C8=O)CC6)CC5)CC4)cn3)nc2n(C2CCCC2)c1=O (single isomer, unassigned)
b. CN(C)C(=O)c1cc2cnc(Nc3ccc(N4CCN(CCN5CCC(CN6CCN(c7ccc8c(c7)CN([C@H]7CCC(=O)NC7=O)C8=O)CC6)CC5)CC4)cn3)nc2n1C1CCCC1 [Compound 29, trihydrochloride]
Task item: Could you please tell me which of these two has the higher IC50: a or b ? Respond using the label that marks the chosen record.
Reply: b
(b: 37.8 nM, a: 16.1 nM)
